- assayed-target: Serine/threonine-protein kinase Nek9 (Homo sapiens);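 further: each value is a mean percent inhibition of NEK9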
- measurement-setup: at 1 µM
# maps each entry to its inhibition
Write the number in % without appending the unit.

| smiles-input | value-type | unit-label | test-value |
| --- | --- | --- | --- |
| COc1ccc(-c2ccc3c(NC(=O)C4CC4)n[nH]c3n2)cc1 | inhibition | % | 3.42 |

From here, focus on the item given below.
Give reported inhibition value for NC(=O)c1ccc(Oc2nccc(-c3c(-c4ccc(F)cc4)ncn3C3CCNCC3)n2)cc1
4.67

###

Consider the following molecules and their measured inhibition readings.
- assayed-target: Cyclin-dependent kinase 5 (Homo sapiens);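 further: mean value of inhibition, with the enzyme tested as CDK5/p35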
- measurement-setup: at 1 µM
// note: answer is a bare numeric in %

Here is how some molecules turned out for inhibition.
| smiles-input | assayed-target | value-type | unit-label | test-value |
| --- | --- | --- | --- | --- |
| CCS(=O)(=O)c1ccc(OC)c(Nc2ncc(-c3ccccc3Cl)o2)c1 | Cyclin-dependent kinase 5 (Homo sapiens) | inhibition | % | 0.87 |
| Fc1ccc(-c2ncn(CCCN3CCOCC3)c2-c2ccncc2)cc1 | Cyclin-dependent kinase 5 (Homo sapiens) | inhibition | % | 3.98 |
| CCc1ccc(Oc2nccc(-c3c(-c4ccc(F)cc4)ncn3C3CCNCC3)n2)cc1 | Cyclin-dependent kinase 5 (Homo sapiens) | inhibition | % | 2.25 |

Give a short answer stating reported inhibition for O=C1Nc2ccc(I)cc2C1=Cc1cc(Br)c(O)c(Br)c1 .
0.26
